Values were extracted from patent US20190276542A1.

target-system: T1, soluble, biotinylated PD1 protein containing only the extracellular region (human, UniProt Q15116 25-170, biotinylated in vivo (site not stated))
T1 construct: extracellular domain; also called biotinylated hPD1
T1 sequence (Q15116 25-170): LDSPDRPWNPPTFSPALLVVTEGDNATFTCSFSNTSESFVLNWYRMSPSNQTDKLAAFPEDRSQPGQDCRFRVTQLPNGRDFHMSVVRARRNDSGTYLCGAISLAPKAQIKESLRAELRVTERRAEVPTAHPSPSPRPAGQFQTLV
test-name: …; inhibition of GST-hPDL1 binding to biotinylated hPD1
Task for the reader: assign each of the following binders its reported IC50.
Give just the number in nM; leave the unit off.

# input # return recorded IC50 for entry anti-hPD1 antibody #10 (antibody, human IgG4, V domains shown, also called Anti-hPD1 #10; Anti-PD1 #10) VH: QVQLVQSGAEVKKPGASVKVSCKASGYTFTSYWMHWVRQAPGQGLEWMGEIDPFDSYTNYNQKFKGRVTMTIDKSTNTVYMELSSLGSEDTAVYYCARPGYTYGGMDFWGQGTLVTVSS VL: DIVMTQSPDSLAVSLGERATINCRSSQSLFISGNQKNYLAWYQQKPGQPPKLLIYGASTRDSGVPDRFSGSGSGTDFTLTISSLQAEDVAVYYCQNNHYYPYTFGGGTKVEIK
# output 0.279

# input Give IC50 for the following binder: anti-hPD1 antibody #4 (antibody, human IgG4, V domains shown, also called Anti-hPD1 #4; Anti-PD1 #4) VH: QVQLVQSGAEVKKPGASVKVSCKASGYTFTNYWMHWVRQAPGQGLEWMGEIDPFDSYTNYNQKFKGRVTMTRDTSTSTVYMELSSLTSEDTAVYYCARPGYTYGGMDFWGQGTLVTVSS VL: DIQMTQSPSSLSASVGDRVTITCKSSQSLLNSGNQKNYLAWYQQKPGKPPKLLIYGASTRDSGVPSRFSGSGSGTDFTLTISSLQPEDVATYYCQNDHYYPYTFGGGTKVEIK
# output 0.314
